Cited source: patent US8834920B2

- System: A431 cells
- Protocol text: Flow cytometry (FACS) of phage binding to A431 cells
- Assay type: cell-based, human
Property measured: binding to A431 relative to positive control phage displaying EGF

SGCLDALWQCVY (Random peptide) [Peptide P174] | comparable
TLCRSFFHPLCYA (Random peptide) [Peptide P146] | weaker
VLCHRYYHPICYT [Peptide P145] | weaker
KTCVSTTFDLWFVCFA (Random peptide) [Peptide P176] | comparable
